# Test description: Cytotoxicity assay (resazurin)
# Type: cell-based
# Cond: African green monkey, Vero CCL-81 cells; 25 μM, Vero CCL-81, resazurin; read-out: cell viability
Outcome measure: viability at 72 h, 25 µM

The value of viability at 72 h, 25 µM measured for the compound CCCSc1nc2sc3c(c2c(=O)n1CC)CCc1ccccc1-3 [Compound 5] turned out to be > 85%

---

# Target or system: PLpro (Severe acute respiratory syndrome coronavirus 2)
# Test description: Time dependent PLpro inhibition assay (pre-incubation)
# Format: biochemical, SARS-CoV-2
# Cond: no pre-incubation; read-out: IC50 of PLpro inhibition, no pre-incubation
Outcome measure: IC50
A bare number is not enough; add the unit after it.

Record CCCSc1nc2sc3c(c2c(=O)n1CC)CCc1ccccc1-3 ; system PLpro (Severe acute respiratory syndrome coronavirus 2); IC50 = 9 µM
